system_under_test: T1, human PVRIG on cells (human, UniProt Q6DKI7 1-326)
T1 construct: whole, on cells; over-expressed on HEK cells or endogenous on Jurkat and CD8 T cells; also called hPVRIG; HEK hPVRIG cells
T1 sequence (looked up): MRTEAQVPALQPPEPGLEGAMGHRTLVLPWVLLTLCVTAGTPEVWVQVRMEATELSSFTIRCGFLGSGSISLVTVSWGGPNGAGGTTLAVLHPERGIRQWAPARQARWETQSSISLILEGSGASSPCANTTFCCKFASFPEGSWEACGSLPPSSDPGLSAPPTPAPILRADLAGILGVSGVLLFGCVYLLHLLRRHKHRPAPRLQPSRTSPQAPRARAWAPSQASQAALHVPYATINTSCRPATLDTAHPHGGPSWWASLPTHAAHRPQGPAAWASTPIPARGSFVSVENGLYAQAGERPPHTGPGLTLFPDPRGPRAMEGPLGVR
test: FACS, human PBMC, CD8+ T cells, 10ug/ml
measurement_name: gMFIr Human CD8+ T cells
Could you keep your reply to the number by itself?

Provide gMFIr Human CD8+ T cells value for the following binder: CHA.7.522 (antibody, V domains shown) VH: QVQLQQPGSELVRPGTSVKLSCKASGYTFTSYWVHWVRQRHGQGLEWIGNVYPGSGSTNYDEKFKSKGTLTVDTSSSTAYMHLSSLTSEDSAVYYCTRGVLRFPLDYWGQGTTLTVSS VL: DIVMTQAAPSVPVTPGESVSISCRSSKSLLHSNGNTYLYWFLQRPGQSPHLLIYRMSNLASGVPDRFSGSGSGTAFTLRISRVEAEDVGVYYCMQHLEYPLTFGAGTKLELK
1.9
